Reference source for all entries: PubChem BioAssay

z-score overview
experimental.target: NADPH oxidase 4 (Homo sapiens)
method: NOX4-dependent H2O2 signal modulators, primary screen, NOX inhibitor project, cell-based, HEK293-NOX4, tetracycline-induced, Amplex Red fluorescence (AID 1160)
assay.context: 45 min, higher = more signal, called active from +8 up or from −8 down
metric.name: z-score

compound	reported
O=C(C1N=C(c2ccc(OCCCO)cc2)N(c2ccccc2)O1)N1CCOCC1 (centres undefined)	-0.258
CC(C)C(=C=CC[C@@H](O)c1ccccc1OCCO)CCO	0.147
COCCOC(=O)N1C(=O)[C@@]2(c3cc(C#CC4=CCCCC4)ccc31)[C@H](C(=O)N1CCc3cc(OC)c(OC)cc3C1)[C@H]1C(=O)O[C@H](c3ccccc3)[C@H](c3ccccc3)N1[C@@H]2c1ccc(OCCO)cc1	1.18
CCCC=C(CCC)[C@@H](NS(=O)(=O)c1cccs1)c1ccc(C(=O)OC)cc1	-3.59

###

experimental.target: Fibroblast growth factor 10 (Homo sapiens)
method: FGF10 binders on small-molecule microarrays, primary screen, biochemical, small-molecule microarray, 635 nm fluorescence (AID 1102)
assay.context: FGF10 binding, fluorescence 635 nm, higher = more signal

molecule	composite z-score
C=C(CCCC)C(=O)CC[C@H](OC(C)=O)c1cccc(OCCO)c1	-0.633
CCCCC(=C=CC[C@@H](O)c1ccccc1OCCO)CCO	0.209
C#CCN(CC1=CCCCC1)[C@H](c1ccccc1Br)[C@@H](O)Cc1ccccc1	-1.25
COC(=O)[C@@]1(Cc2ccc(OC)cc2)[C@H]2c3cc(C(=O)N4CCCC4)n(Cc4ccc(OC)c(OC)c4)c3C[C@H]2CN1C(=O)c1ccccc1	0.784
CCOC(=O)C[C@H]1[C@H](OC(=O)c2ccc(C(=O)c3ccccc3)cc2)[C@@H](NC(=O)c2ccc(-c3ccccc3)cc2)c2cc(OCCCO)ccc2N1C(=O)c1ccccc1	0.994
O=C1[C@H]2C=C(Br)[C@H](C[C@@H]2OCCCCO)[C@@]12CO2	0.177
C=CCNC(=O)[C@H]1[C@@H]2C(=O)O[C@@H](c3ccccc3)[C@@H](c3ccccc3)N2[C@@H](c2ccc(OCCO)cc2)[C@]12C(=O)Nc1ccc(C#CC3=CCCCC3)cc12	0.929
COc1ccc(C(O)C2C=CC3C(=O)NC(=O)C3N2Nc2ccccn2)cc1 (stereo unspecified)	0.257
CCOC(=O)C1=CCC(c2ccc(C)cc2)N(S(=O)(=O)c2ccc(C)cc2)C1 (stereo unspecified)	0.129
COc1ccc([Si](C)(C)[C@@H]2[C@@H](CC(=O)N3Cc4ccccc4C[C@H]3CO)O[C@]3(C(=O)N(C)c4c(Br)cc(C)cc43)[C@H]2C)cc1	1.33
CC(C)C[C@@H]1NC(=O)[C@H]2C[C@@H](C(=O)NCCCCCCN(C)C)[C@@H](c3ccc(O)cc3)N2C1=O	1.2
CN1C(=O)C2C=CC(C(O)C3CCCCC3)N(Nc3ccc([N+](=O)[O-])cc3[N+](=O)[O-])C2C1=O (stereo unspecified)	0.911
O=C1OCCC/C=C\[C@H]2OC34C=CCN(c5ccc6ccccc6c5)C(=O)[C@H]3N(CCCCCCO)C(=O)[C@@H]4C12 (stereo partly specified)	-0.873
CC(C)c1ccc(NN2C(C(O)c3cc(C(F)(F)F)cc(C(F)(F)F)c3)C=CC3C(=O)N(c4ccccc4)C(=O)C32)cc1 (stereo unspecified)	-0.329
COCCOC(=O)N1C(=O)[C@@]2(c3cc(C#Cc4ccc(OC)cc4)ccc31)[C@H](C(=O)N1CCCCCCC1)[C@H]1C(=O)O[C@H](c3ccccc3)[C@H](c3ccccc3)N1[C@@H]2c1ccc(OCCO)cc1	1.7
N#Cc1ccc(NN2C(C(O)c3c(F)cccc3Cl)C=CC3C(=O)N(c4ccccc4)C(=O)C32)cc1 (stereo unspecified)	0.922
